// data source = paper PMC5540273

Measured %Inh, listed per entry.
tested on: SGK3; details: concentration: 1 μM, replicates: in singlicate; n = 1;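 further: KINOMEscan kinase panel screen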
The figure you give is taken to be in %; do not add the unit.

Some entries whose results are on file:
Clc1ccc(-c2cc(-c3c[nH]nc3-c3ccccn3)ccn2)cc1 [GW681251] : 6
Cl.c1ccc(Cn2ncc3cc(Nc4ncnc5ccccc45)ccc32)cc1 [GW273749] : 0
Fc1cccc(COc2ccc(Nc3ncnc4sc(-c5ccc[nH]5)cc34)cc2Cl)c1 [GW707818] : 19
Cl.c1ccc(Cn2ccc3cc(Nc4ncnc5ccccc45)ccc32)cc1 [GW275568] : 46
CCn1c(-c2ccncc2)nc2cnccc21 [SB-735216] : 28

Could you now consider this next compound?
Lookup: Entry CNc1nccc(-c2c(-c3ccc(F)cc3)ncn2CCCN2CCOCC2)n1 [SB-222516] : reported %Inh = ?
Found: 44

====

tested on: RIPK4; conditions: concentration: 1 μM, replicates: in singlicate; n = 1
property.measured: %Inh (%)
Report the value in % with no unit label.

Nc1nccc2scc(-c3ccc4c(c3)CCN4C(=O)Cc3cc(F)ccc3F)c12 : 0

Lookup: Which %Inh is reported for this molecule? CSc1nn2c(=O)cc(N3CCOCC3)nc2n1Cc1cccc(Cl)c1Cl
Found: 7

Lookup: For COc1ccc(-c2oc3ncnc(N)c3c2-c2ccc(OC)cc2)cc1 , what is its reported %Inh?
Found: 1

Lookup: Record request: %Inh value, item CS(=O)(=O)CCNCc1ccc(-c2ccc3ncnc(Nc4ccc(OCc5ccccc5)c(Cl)c4)c3c2)o1.Cl
Found: 0

Lookup: Requested read-out: %Inh. Entry: CC(C)N1CCC(n2cnc(-c3ccc(F)cc3)c2-c2ccnc(N)n2)CC1
Found: 0

Lookup: Data request, read-out %Inh, for Cc1cccc(-c2nc(Nc3ccc4[nH]nnc4c3)c3ccccc3n2)n1
Found: 0

Lookup: Query: %Inh; subject: O=C(CCO)NCCn1ccc2ncnc(Nc3ccc(Oc4cccc(C(F)(F)F)c4)c(Cl)c3)c21
Found: 0

====

tested on: MAP3K2; conditions: concentration: 1 μM, replicates: in singlicate; n = 1
property.measured: %Inh (%)
Please reply with the bare figure in % and do not write the unit itself.

Answered cases to consult:
Cl.Cn1ccc(-c2cccc(Nc3ccnc4cc(-c5nccs5)ccc34)c2)n1 [GW525701] : 0
CS(=O)(=O)CCNCc1ccc(-c2ccc3ncnc(Nc4ccc(OCc5ccccc5)c(Cl)c4)c3c2)o1.Cl [GW574783] : 0
Oc1ccc2ncnc(Nc3ccc(OCc4ccccc4)cc3)c2c1 [GI262866] : 0
CS(=O)(=O)CCNCc1nc(-c2ccc3ncnc(Nc4ccc(OCc5cccc(F)c5)c(Cl)c4)c3c2)cs1.Cl [GW583340] : 0
Nc1nc(-c2ccccn2)c(-c2ccnc3ccccc23)s1 [GW548057] : 0

Lookup: Recorded %Inh for CCc1nc(-c2cccc(C)c2)c(-c2ccnc(NC(=O)c3ccccc3)c2)s1 with MAP3K2, please?
Found: 0

Lookup: Param readout = %Inh; param system = MAP3K2; param query = Fc1cccc(COc2ccc(Nc3ncnc4cc[nH]c34)cc2Cl)c1 ; response: value
Found: 11

Lookup: Short answer please: %Inh, MAP3K2, entry O=C(Nc1ccccc1)Nc1ccc(Oc2ccc3nccn3n2)cc1
Found: 0

Lookup: For MAP3K2, provide %Inh of Clc1cc(Nc2ncnc3cc[nH]c23)ccc1OCc1ccccn1 please.
Found: 2

====

Attribute: %Inh
test system: PRKD3; conditions: concentration: 1 μM, replicates: in singlicate; n = 1
Entry rule: numbers only, all in %.

CN1CCC(n2cnc(-c3ccc(F)cc3)c2-c2ccnc(NC3CCNCC3)n2)CC1 : 0
Cl.c1ccc(Cn2ncc3cc(Nc4ncnc5ccccc45)ccc32)cc1 : 22
COc1ccc(NC(=O)Nc2ccc(C)c(-c3ccc(C(=O)Nc4ccncc4)cc3)c2)cc1 : 5

Lookup: Dear colleague, I am looking for the recorded %Inh of the following molecule: COc1ccc(NC(=O)c2ccc(-c3cc(-c4nnc(C)o4)ccc3C)cc2)cc1
Found: 0

Lookup: Item COc1ccc(Nc2nccc(N3CCC(NC(=O)Nc4ccc5c(c4)OCO5)C3)n2)cc1 (stereo not drawn) has what recorded %Inh?
Found: 25

Lookup: What value of %Inh has been reported for the following molecule? Oc1ccc2ncnc(Nc3ccc(OCc4ccccc4)cc3)c2c1
Found: 30

Lookup: Fill blank: measured %Inh of the molecule Fc1cccc(COc2ccc(Nc3ncnc4cc[nH]c34)cc2Cl)c1 is ____.
Found: 0

Lookup: Given CS(=O)(=O)CCNCc1ccc(-c2ccc3ncnc(Nc4ccc(OCc5ccccc5)c(Cl)c4)c3c2)o1.Cl , state its recorded %Inh.
Found: 0

Lookup: What value of %Inh has been reported for the following molecule? Cl.c1ccc(Cn2ccc3cc(Nc4ncnc5ccccc45)ccc32)cc1
Found: 13

====

system: MAP4K2; conditions: concentration: 1 μM, replicates: in singlicate; n = 1
Catalogue of compounds with associated %Inh
Give just the numeric value; % need not be written.

Previously resolved entries follow.
CCCc1ccc(S(=O)(=O)NC2CCN(c3ccnc(Nc4ccc(OC)cc4)n3)C2)cc1 (stereo not drawn) : 0
O=C(Nc1n[nH]c2nc(-c3ccco3)c(Br)cc12)c1ccc(CN2CCCC2)cc1.O=C(O)[C@H](O)[C@@H](O)C(=O)O : 34
COc1ccc(-c2oc3ncnc(N)c3c2-c2ccc(OC)cc2)cc1 : 0
CC(C)(C)c1ccc(-n2cnc3c(N)ncnc32)cc1 : 11
O=C(NCCCN1CCCC1=O)c1cnc(NCc2cc(Cl)ccc2Cl)nc1NC1CCNCC1 : 0

Lookup: State the recorded %Inh for this entry: COC(=O)c1cccc(NC(=O)NCCNc2ccnc(Nc3ccc(F)cc3)n2)c1
Found: 0

Lookup: What measured %Inh goes with Cl.Cn1ccc(-c2cccc(Nc3ccnc4cc(-c5nccs5)ccc34)c2)n1 ?
Found: 14

Lookup: Reported %Inh for Cl.c1ccc(Cn2ccc3cc(Nc4ncnc5ccccc45)ccc32)cc1 : what is it?
Found: 0

Lookup: Which %Inh is listed for Nc1nc(-c2ccc3c(N)n[nH]c3c2)cc(N2CCCCC2)n1 ?
Found: 0

Lookup: Returns the measured %Inh for the input compound. Input: C[C@@H]1CCN(C(=O)CO)C[C@@H]1N(C)c1ncnc2[nH]ccc12
Found: 0

====

tested on: SRPK1; conditions: concentration: 1 μM, replicates: in singlicate; n = 1
Quick list: %Inh per entry.
Numbers only; they are read as %.

CS(=O)(=O)CCNCc1ccc(-c2ccc3ncnc(Nc4ccc(OCc5ccccc5)c(Cl)c4)c3c2)o1.Cl : 0

Lookup: Need %Inh, item CS(=O)(=O)CCNCc1nc(-c2ccc3ncnc(Nc4ccc(OCc5cccc(F)c5)c(Cl)c4)c3c2)cs1.Cl
Found: 2

Lookup: %Inh lookup needed for CNc1nccc(-c2c(-c3ccc(F)cc3)ncn2CCCN2CCOCC2)n1 , thanks.
Found: 19

Lookup: Requested read-out: %Inh. Entry: O=C(Nc1ccccc1F)NC1CCN(c2ccnc(Nc3ccc(F)cc3)n2)C1 (centres unmarked)
Found: 0

Lookup: Which %Inh value belongs to CCC(CC)(CC)n1cnc2c(N)ncnc21 ?
Found: 14

====

test system: DCAMKL3; construct: gene DCLK3; conditions: concentration: 1 μM, replicates: in singlicate; n = 1
This listing pairs compounds with measured %Inh.
Expressed in %, but write only the number.

Some compounds with known %Inh results, for comparison:
Fc1cccc(COc2ccc(Nc3ncnc4sc(-c5ccc[nH]5)cc34)cc2Cl)c1 : 30
NC(=O)c1sc(-n2cnc3ccccc32)cc1OCc1ccccc1F : 0
CN1c2ccc(-c3ccc(C(=O)NCCO)cc3)cc2-c2[nH]ncc2S1(=O)=O : 2
Clc1cccc(-c2nc(Nc3ccncc3)c3ccccc3n2)c1 : 41

Lookup: I would be grateful if you could share the reported %Inh for CC(C)(C)OC(=O)NC1CCCN(c2cc(-c3ccc4c(N)n[nH]c4c3)nc(N)n2)C1 (centres unmarked) .
Found: 0

====

tested on: BRSK2; conditions: concentration: 1 μM, replicates: in singlicate; n = 1
Listed next: entries and their corresponding %Inh.
Note: unit % is implicit; provide only the numeric part.

Example entries begin here.
O=C(c1ccc(-c2cc(-c3c[nH]nc3-c3ccccn3)ccn2)cc1)N1CCCC1 : 2
CCc1nc(-c2cccc(N(C)S(=O)(=O)c3ccccc3)c2)c(-c2ccnc(Nc3ccc(N4CCN(C(C)=O)CC4)nc3)n2)s1 : 0
Fc1cccc(COc2ccc(Nc3ncnc4cc[nH]c34)cc2Cl)c1 : 0
Cc1cc(N2CCC(NS(=O)(=O)c3ccc(F)cc3)CC2)nc(Nc2cccc(C#N)c2)n1.O=C(O)C(F)(F)F : 0
COc1ccc(NC(=O)Nc2ccc(C)c(-c3ccc(C(=O)Nc4ccncc4)cc3)c2)cc1 : 0

Lookup: Would you kindly share the measured %Inh for CS(=O)(=O)CCNCc1ccc(-c2ccc3ncnc(Nc4ccc(OCc5ccccc5)c(Cl)c4)c3c2)o1.Cl ?
Found: 0

Lookup: # %Inh lookup, item Cl.c1ccc(Cn2ncc3cc(Nc4ncnc5ccccc45)ccc32)cc1
Found: 0

Lookup: What does the record list as %Inh for C[C@@H]1CCN(C(=O)CO)C[C@@H]1N(C)c1ncnc2[nH]ccc12 ?
Found: 0
